# System: erythrocytes
# test.details: Hemolysis assay (Example 11)
# Assay type: cell-based
# Parameters: dose or concentration left out as unconfirmed
# measurement.context: 1 h
Where no end group is shown, it is not given here.
# if value of % Hemolysis Mean reaches 3%, tag satisfied; if it stays below, tag not satisfied

In [3]: df
Out[3]:
                                  substance  assigned_label
0  Ac-CNYITELRRQHARASHLGLA-NH2 [Peptide 179]   not satisfied
1        CNYITELLRQLARARKKGLA [Peptide 158]       satisfied
2        CNYIEELKRQLARALHKGLA [Peptide 145]   not satisfied
3  Ac-CNYIEELRRQLARALHKGLA-NH2 [Peptide 181]       satisfied
4        CNYIEELLRQLARARKKGLA [Peptide 159]   not satisfied
5        CNYITELLRQLARAKKKGLA [Peptide 160]   not satisfied
6        CNYITELLRQLARAQKKGLA [Peptide 155]       satisfied
